# target.system: Thromboxane A2 receptor (Homo sapiens, UniProt P21731)
# procedure.text: Activity at TPalpha (short isoform) receptor expressed in HEK293 cells assessed as ability to antagonize U46619-mediated calcium ion mobilization
# Format: functional, cell-based
quantity.measured: IC50

[[record]]
entry_smiles = "Cc1ccc(Nc2ccc([N+](=O)[O-])cc2S(=O)(=O)NC(=O)NCc2ccccc2)cc1"
quantity_measured = "IC50"
result = "64.5 nM"

[[record]]
entry_smiles = "CCCCCNC(=O)NS(=O)(=O)c1cc([N+](=O)[O-])ccc1Oc1ccc(C)cc1"
quantity_measured = "IC50"
result = "139 nM"

[[record]]
entry_smiles = "CCCCCCCNC(=O)NS(=O)(=O)c1cc([N+](=O)[O-])ccc1NC1CCCCC1"
quantity_measured = "IC50"
result = "92.9 nM"

[[record]]
entry_smiles = "CCCCCNC(=O)NS(=O)(=O)c1cc([N+](=O)[O-])ccc1Nc1ccc(Br)c(C)c1"
quantity_measured = "IC50"
result = "126 nM"


* * *

Item-by-item account of pIC50
# target.system: Thromboxane A2 receptor (Homo sapiens, UniProt P21731)
# procedure.text: Displacement of [3H]SQ29,548 from TPalpha receptor (short isoform) expressed in COS7 cells
pIC50: −log10 of the molar value.
quantity.measured: pIC50

[[record]]
entry_smiles = "Cc1ccc(Nc2ccc([N+](=O)[O-])cc2S(=O)(=O)NC(=O)NCc2ccccc2)cc1"
numeric_readout = 8.72

[[record]]
entry_smiles = "Cc1ccc(Nc2ccc([N+](=O)[O-])cc2S(=O)(=O)NC(=O)NC(C)(C)C)cc1"
numeric_readout = 8.98

[[record]]
entry_smiles = "CCCCCCCNC(=O)NS(=O)(=O)c1cc([N+](=O)[O-])ccc1NC1CCCCC1"
numeric_readout = 8.60

[[record]]
entry_smiles = "CCCCCCNC(=O)NS(=O)(=O)c1cc([N+](=O)[O-])ccc1Oc1ccc(C)cc1"
numeric_readout = 9.14


* * *

# target.system: Thromboxane A2 receptor (Homo sapiens) (UniProt P21731)
# Sequence (whole entry): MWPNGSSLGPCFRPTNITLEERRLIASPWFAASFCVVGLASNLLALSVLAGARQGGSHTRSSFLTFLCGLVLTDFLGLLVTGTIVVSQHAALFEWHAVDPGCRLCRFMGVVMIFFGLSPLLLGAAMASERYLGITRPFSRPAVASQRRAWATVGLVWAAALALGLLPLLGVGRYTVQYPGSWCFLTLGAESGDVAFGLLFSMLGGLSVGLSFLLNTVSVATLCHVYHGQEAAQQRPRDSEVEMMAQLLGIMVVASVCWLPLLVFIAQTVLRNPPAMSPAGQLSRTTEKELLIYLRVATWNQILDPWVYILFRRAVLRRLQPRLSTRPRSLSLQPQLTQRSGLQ
# procedure.text: Selectivity index, IC50 for TPalpha/IC50 for TPbeta in HEK293 cells
# Type: functional, cell-based
Given measured Ratio IC50, output Satisfied if it is greater than or equal to 3 and Not satisfied if not.

[[record]]
entry_smiles = "CCCCCNC(=O)NS(=O)(=O)c1cc([N+](=O)[O-])ccc1Nc1cc(C)cc(C)c1"
discrete_label = "Satisfied"

[[record]]
entry_smiles = "CCCCCNC(=O)NS(=O)(=O)c1cc([N+](=O)[O-])ccc1Oc1ccc(C)cc1"
discrete_label = "Not satisfied"

[[record]]
entry_smiles = "Cc1ccc(Nc2ccc([N+](=O)[O-])cc2S(=O)(=O)NC(=O)N2CCCCC2)cc1"
discrete_label = "Not satisfied"

[[record]]
entry_smiles = "CCCCCNC(=O)NS(=O)(=O)c1cc([N+](=O)[O-])ccc1Nc1c(C)cccc1C"
discrete_label = "Not satisfied"

[[record]]
entry_smiles = "CCCCCNC(=O)NS(=O)(=O)c1cc([N+](=O)[O-])ccc1Nc1ccc(C)cc1"
discrete_label = "Satisfied"

[[record]]
entry_smiles = "CCCCCCNC(=O)NS(=O)(=O)c1cc([N+](=O)[O-])ccc1NC1CCCCC1"
discrete_label = "Not satisfied"

[[record]]
entry_smiles = "Cc1ccc(Oc2ccc([N+](=O)[O-])cc2S(=O)(=O)NC(=O)NC(C)(C)C)cc1"
discrete_label = "Not satisfied"

[[record]]
entry_smiles = "Cc1ccc(Sc2ccc([N+](=O)[O-])cc2S(=O)(=O)NC(=O)NC(C)(C)C)cc1"
discrete_label = "Satisfied"

[[record]]
entry_smiles = "Cc1ccc(Nc2ccc([N+](=O)[O-])cc2S(=O)(=O)NC(=O)NCc2ccccc2)cc1"
discrete_label = "Not satisfied"

[[record]]
entry_smiles = "Cc1cccc(C)c1Nc1ccc([N+](=O)[O-])cc1S(=O)(=O)NC(=O)NC(C)(C)C"
discrete_label = "Not satisfied"

[[record]]
entry_smiles = "CCCCCCCNC(=O)NS(=O)(=O)c1cc([N+](=O)[O-])ccc1NC1CCCCC1"
discrete_label = "Not satisfied"


* * *

# target.system: UniProt:P21731
# procedure.text: Displacement of [3H]SQ-29548 from TPbeta receptor (long isoform) expressed in COS7 cells at 1 nM
# conditions: COS-7
quantity.measured: Activity (%)

[[record]]
entry_smiles = "CC(C)(C)NC(=O)NS(=O)(=O)c1cc([N+](=O)[O-])ccc1Sc1ccc(Cl)cc1"
numeric_readout = 31.7

[[record]]
entry_smiles = "CCCCCNC(=O)NS(=O)(=O)c1cc([N+](=O)[O-])ccc1Nc1c(C)cccc1C"
numeric_readout = 54

[[record]]
entry_smiles = "CCCCCNC(=O)NS(=O)(=O)c1cc([N+](=O)[O-])ccc1Oc1cccc(C)c1"
numeric_readout = 22.8

[[record]]
entry_smiles = "Cc1ccc(Nc2ccc([N+](=O)[O-])cc2S(=O)(=O)NC(=O)NC(C)(C)C)cc1"
numeric_readout = 53.6

[[record]]
entry_smiles = "CCCCC/N=C(\\NC#N)NS(=O)(=O)c1cc([N+](=O)[O-])ccc1Nc1ccc(C)cc1"
numeric_readout = 27.2

[[record]]
entry_smiles = "CCCCCNC(=O)NS(=O)(=O)c1cc([N+](=O)[O-])ccc1Nc1cc(C)cc(C)c1"
numeric_readout = 49.7

[[record]]
entry_smiles = "CCCCNC(=O)NS(=O)(=O)c1cc([N+](=O)[O-])ccc1Oc1ccc(C)cc1"
numeric_readout = 56

[[record]]
entry_smiles = "CCCCCCCNC(=O)NS(=O)(=O)c1cc([N+](=O)[O-])ccc1NC1CCCCC1"
numeric_readout = 36.4

[[record]]
entry_smiles = "Cc1ccc(Nc2ccc([N+](=O)[O-])cc2S(=O)(=O)NC(=O)N2CCCCC2)cc1"
numeric_readout = 54.2

